Origin of the recorded values: paper doi:10.1101/2021.12.14.472599

target.of.assay: GsSir2;GsAgo (Geobacter sulfurreducens Caccavo (ATCC …, UniProt Q74DF6;Q74DF5 1-587;1-473, |))
procedure.details: EMSA
Lab note: compare Kd with 50 nM, writing class 1 if less and class 0 if equal or more.

binder="ATAATGGTTTCTTAGACGTCGTTTTAGAGCTGTGTTGTTTCG (ssDNA, circularised by CircLigase II) [circular ssDNA (TK-49)]" class="class 1"
binder="ATAATGGTTTCTTAGACGTCGTTTTAGAGCTGTGTTGTTTCG (ssDNA) [ssDNA (TK-49)]" class="class 1"
binder="dsRNA (TF-A/MZ-1185) (dsRNA) RNA 1: AUAAUGGUUUCUUAGACGUCGUUUUAGAGCUGUGUUGUUUCG RNA 2: CGAAACAACACAGCUCUAAAACGACGUCUAAGAAACCAUUAU" class="class 0"
binder="AUAAUGGUUUCUUAGACGUCGUUUUAGAGCUGUGUUGUUUCG (ssRNA) [ssRNA (TF-A)]" class="class 1"
binder="RNA/DNA heteroduplex (TF-A/MZ-949) (DNA:RNA) RNA: AUAAUGGUUUCUUAGACGUCGUUUUAGAGCUGUGUUGUUUCG DNA: CGAAACAACACAGCTCTAAAACGACGTCTAAGAAACCATTAT" class="class 1"
